Provenance of the data: PubChem BioAssay AID1159580

Documented normalized growth across a set of compounds
- Assay Method Text: chemical genetic growth profiling, strain panel (AID 1159580);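 note: tested at 20 µM; growth read once vehicle control cultures reached saturation at 30 °C; 1 = growth at the plate median or of vehicle wells; lower values mean less growth of the strain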
- Reported Conditions: S. cerevisiae deletion strains, growth OD, locus YGL227W, strain vid30, stronger effect = lower value
The campaign covered roughly 5,500 compounds. About 2,000 (36%) were called active. Roughly 18% stayed inconclusive and do not appear here. This is one part of the list.
Number only, no unit.

Examples with answers:
Prompt line: Sample CC(C)c1c(O)ccc2c1CCC1[C@@](C)(CO)CCC[C@]21C (stereo not given in full) — what was its normalized growth?
Response line: 1.02

Prompt line: Repeat for the following compound: CC(=O)O[C@@H]1CC2C(C)(C)C(=O)C=C[C@]2(C)C2CC[C@@]3(C)[C@H](c4ccoc4)OC(=O)[C@H]4O[C@]43[C@@]21C (stereo not given in full)
Response line: 0.961

Prompt line: Repeat for the following compound: "CCCCCC(=O)Cc1cc(O)cc(O)c1C(=O)Oc1cc(CC(=O)CCCCC)c(C(=O)O)c(OC)c1"
Response line: 0.937

New cases:
Prompt line: Sample "O=C(O[C@@H]1Cc2c(O)cc(O)cc2O[C@@H]1c1cc(O)c(=O)c2c(O)c(O)cc([C@H]3Oc4cc(O)cc(O)c4C[C@H]3O)c2c1)c1cc(O)c(O)c(O)c1" — what was its normalized growth?
Response line: 0.991

Prompt line: Repeat for the following compound: "NC(=O)CN1CCCC1=O"
Response line: 0.998

---

- Assay Method Text: chemical genetic growth profiling, strain panel (AID 1159580)
- Reported Conditions: S. cerevisiae deletion strains, growth OD, locus YHR079C, strain IRE1 (second series)
About 2,000 (36%) of roughly 5,500 compounds were called active. Inconclusive results (about 18%) are left out. Rule as the data show it: active = normalized growth mostly below about 0.91 (no sharp cut-off); inconclusive = no clear call, values can overlap the other calls; inactive = mostly above about 0.92. The list shows a part of the results.
Answer with one of the outcomes given here: active, inactive

Please review the following examples before continuing.
Prompt line: Test call for this compound, please: NC(CSCSCC(N)C(=O)O)C(=O)O (centres undefined)
Response line: inactive

Prompt line: Repeat for the following compound: "O=C(O)C1=C[C@@H](O)[C@@H](O)[C@H](O)C1"
Response line: inactive

New cases:
Prompt line: Test call for this compound, please: CC(C1OC(C)(C)C(O)C1O)[C@@H]1CC[C@]2(C)C3=CCC4C(C)(C)C(=O)CC[C@]4(C)C3CC[C@@]12C (some centres undefined)
Response line: inactive

Prompt line: Repeat for the following compound: "CCOC(=O)NC1=C(C2CC2)C(=O)C(NC(=O)OCC)=C(C2CC2)C1=O"
Response line: inactive

---

- Assay Method Text: chemical genetic growth profiling, strain panel (AID 1159580)
- Reported Conditions: S. cerevisiae deletion strains, growth OD, locus YLR102C, strain apc9
In all, about 5,500 compounds went through this assay and about 2,000 (36%) were called active. Roughly 18% stayed inconclusive and do not appear here. Cut-off read from the data, not from the text of the source: active = normalized growth mostly below about 0.91 (no sharp cut-off); inconclusive = no clear call, values can overlap the other calls; inactive = mostly above about 0.92. The list shows a part of the results.
Answer with one of the outcomes given here: active, inactive

Please review the following examples before continuing.
Prompt line: Test call for this compound, please: CC1(C)C(=O)C=C[C@@]2(C)C1CC(=O)[C@]1(C)C2CC[C@@]2(C)[C@H](c3ccoc3)OC(=O)[C@H]3O[C@]321 (stereo not given in full)
Response line: inactive

Prompt line: Repeat for the following compound: "CCN1C[C@]2(C)CC[C@H](OC)[C@]34C2[C@H](O)[C@]2(OCO[C@@]25C[C@H](OC)[C@H]2C[C@]3(O)C5[C@H]2O)C14"
Response line: inactive

Prompt line: Repeat for the following compound: CC(C)c1c(O)ccc2c1CCC1C(C)(C)CCC[C@]21C (stereo not given in full)
Response line: active

New cases:
Prompt line: Test call for this compound, please: NC(=O)NCC(N)C(=O)O (stereo not given)
Response line: inactive

Prompt line: Repeat for the following compound: "O=c1cc(-c2ccc(O)cc2)oc2cc(O[C@@H]3O[C@H](CO)[C@@H](O)[C@H](O)[C@H]3O)cc(O)c12"
Response line: inactive

Prompt line: Repeat for the following compound: "CC/C(=C(/CC)c1ccc(O)cc1)c1ccc(O)cc1"
Response line: inactive

Prompt line: Repeat for the following compound: CC(=O)[C@@]1(O)CCC2C3C[C@H](C)C4=CC(=O)C=CC4(C)[C@@]3(F)[C@@H](O)C[C@@]21C (stereo not given in full)
Response line: inactive

Prompt line: Repeat for the following compound: "COc1cc(O)c2c(=O)c(O)c(-c3ccc(O)c(O)c3)oc2c1"
Response line: inactive

Prompt line: Repeat for the following compound: "COc1ccc(-c2cc(=O)c3c(O)cc(O[C@H]4O[C@H](CO[C@@H]5O[C@@H](C)[C@H](O)[C@@H](O)[C@H]5O)[C@@H](O)[C@H](O)[C@H]4O)cc3o2)cc1"
Response line: inactive

Prompt line: Repeat for the following compound: "COc1ccc(-c2cc(=O)c3c(O)cc(O[C@@H]4O[C@H](CO[C@H]5O[C@H](C)[C@@H](O)[C@H](O)[C@@H]5O)[C@@H](O)[C@H](O)[C@H]4O)cc3o2)cc1O"
Response line: inactive

Prompt line: Repeat for the following compound: "Cc1[nH]ccc2c1[nH]c1cc(=O)ccc12"
Response line: inactive

Prompt line: Repeat for the following compound: "NC(N)=NC(=O)c1nc(Cl)c(N)nc1N"
Response line: inactive

Prompt line: Repeat for the following compound: "O=c1c(O)c(-c2cc(O)c(O)c(O)c2)oc2cc(O)cc(O)c12"
Response line: inactive

Prompt line: Repeat for the following compound: CC1(C)C(=O)C=C[C@@]2(C)C1C=C[C@]1(C)C2CC[C@@]2(C)[C@H](c3ccoc3)OC(=O)C3OC321 (stereo not given in full)
Response line: inactive

Prompt line: Repeat for the following compound: C[C@@H]1O[C@@H](OC[C@H]2OC(Oc3c(-c4ccc(O)c(O)c4)oc4cc(O)cc(O)c4c3=O)[C@H](O)[C@@H](O)[C@@H]2O)[C@H](O)[C@H](O)[C@H]1O (stereo not given in full)
Response line: inactive

---

- Assay Method Text: chemical genetic growth profiling, strain panel (AID 1159580);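 note: tested at 20 µM; growth read once vehicle control cultures reached saturation at 30 °C; 1 = growth at the plate median or of vehicle wells; lower values mean less growth of the strain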
- Reported Conditions: S. cerevisiae deletion strains, growth OD, locus YDL101C, strain DUN1
The whole screen tested about 5,500 compounds, of which about 2,000 (36%) were called active. Another 18% or so got no clear call; they are omitted. Cut-off read from the data, not from the text of the source: active = normalized growth mostly below about 0.91 (no sharp cut-off); inconclusive = no clear call, values can overlap the other calls; inactive = mostly above about 0.92. The list shows a part of the results.
Answer with one of the outcomes given here: t = active, f = inactive

Prompt line: Test call for this compound, please: "C=C1SC(Nc2cccc(C(F)(F)F)c2)=NC12CCCCC2"
Response line: f

Prompt line: Repeat for the following compound: "NC(=O)CN1CCCC1=O"
Response line: f

New cases:
Prompt line: Test call for this compound, please: CC1(C)C2CC(=O)[C@]3(C)C(CC[C@@]4(C)[C@H](c5ccoc5)OC(=O)[C@H]5O[C@]543)[C@@]2(C)C(=O)C[C@H]1O (stereo partly drawn)
Response line: f

Prompt line: Repeat for the following compound: CC1(C)C2CC(=O)[C@]3(C)C(CC[C@@]4(C)[C@H](c5ccoc5)OC(=O)C5OC543)[C@@]2(C)[C@@H](O)C[C@H]1O (stereo partly drawn)
Response line: f

Prompt line: Repeat for the following compound: "CC(C)(O)[C@@H]1Cc2cc3ccc(=O)oc3cc2O1"
Response line: f

Prompt line: Repeat for the following compound: CC(C)C1COc2cc3oc(=O)ccc3cc2O1 (stereo not drawn)
Response line: t

Prompt line: Repeat for the following compound: "CN(C)C=Nc1nnc(Sc2nc3c(Cl)cc(Cl)cc3s2)s1"
Response line: f

Prompt line: Repeat for the following compound: "COc1ccc2ccc(=O)oc2c1"
Response line: f

---

- Assay Method Text: chemical genetic growth profiling, strain panel (AID 1159580);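 note: tested at 20 µM; growth read once vehicle control cultures reached saturation at 30 °C; 1 = growth at the plate median or of vehicle wells; lower values mean less growth of the strain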
- Reported Conditions: S. cerevisiae deletion strains, growth OD, locus YKL085W, strain MDH1 (second series), stronger effect = lower value
The campaign covered roughly 5,500 compounds. About 2,000 (36%) were called active. Inconclusive results (about 18%) are left out. This is one part of the list.
Documented normalized growth across a set of molecules
Number only, no unit.

Prompt line: Sample "CC1(C)O[C@H]2CC(=O)OC[C@]23[C@H]2CC[C@@]4(C)[C@H](c5ccoc5)OC(=O)[C@H]5O[C@]54[C@]2(C)C(=O)C[C@@H]13" — what was its normalized growth?
Response line: 0.992

New cases:
Prompt line: Sample "CCOC(=O)c1c(C)cc(OC)cc1O" — what was its normalized growth?
Response line: 0.946

---

Documented normalized growth across a set of compounds
- Assay Method Text: chemical genetic growth profiling, strain panel (AID 1159580);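 note: tested at 20 µM; growth read once vehicle control cultures reached saturation at 30 °C; 1 = growth at the plate median or of vehicle wells; lower values mean less growth of the strain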
- Reported Conditions: S. cerevisiae deletion strains, growth OD, locus YER167W, strain BCK2, stronger effect = lower value
Among all 5,500 compounds or so, about 2,000 (36%) were called active. Another 18% or so got no clear call; they are omitted. The list shows a part of the results.

Examples with answers:
Prompt line: Sample CC(CC(O)C1OC1(C)C)[C@@H]1CCC2(C)C3=CCC4C(C)(C)C(=O)CCC4(C)C3CC[C@@]12C (stereo partly drawn) — what was its normalized growth?
Response line: 1.05 (inactive)

Prompt line: Repeat for the following compound: "CCC/C=C1\OC(=O)C2=C1CCC=C2"
Response line: 0.998 (inactive)

Read the next record carefully.
Prompt line: Sample CCCCCCC(C)OC(=O)COc1ccc(Cl)cc1Cl (stereo not drawn) — what was its normalized growth?
Response line: 0.986 (inactive)
